System: non-transgenic soybean variety Wandou 28
Assay: Field herbicide tolerance test, single herbicides (Example 7)
Conditions: Wandou 28; 2 weeks after spraying at V3; doses as Table 10 c1
Assay Readout: damage rate(%) After 2 weeks

• Cc1cc(Cl)ccc1OCC(=O)O = 100
• CCOC(=O)c1cnn(C)c1S(=O)(=O)NC(=O)Nc1nc(OC)cc(OC)n1 = 100
• COc1cc(OC)nc(NC(=O)NS(=O)(=O)c2ncccc2C(=O)N(C)C)n1 = 100
• CS(=O)(=O)c1ccc(C(=O)C2C(=O)CCCC2=O)c([N+](=O)[O-])c1 = 100
• O=C(O)CNCP(=O)(O)O [Glyphosate, glyphosate] = 100

###

System: transgenic soybean event XP-2
Assay: Field herbicide tolerance test, single herbicides (Example 7)
Conditions: XP-2; 2 weeks after spraying at V3; doses as Table 10 c1
Assay Readout: Height(cm) After 2 weeks

• COc1cc(OC)nc(NC(=O)NS(=O)(=O)c2ncccc2C(=O)N(C)C)n1 [Nicosulfuron, nicosulfuron] = 14.73
• CCOC(=O)c1cnn(C)c1S(=O)(=O)NC(=O)Nc1nc(OC)cc(OC)n1 [Pyrazosulfuron-ethyl, pyrazosulfuron-ethyl] = 14.6
• O=C(O)CNCP(=O)(O)O [Glyphosate, glyphosate] = 14.58
• Cc1cc(Cl)ccc1OCC(=O)O [MCPA] = 14.7
• CS(=O)(=O)c1ccc(C(=O)C2C(=O)CCCC2=O)c([N+](=O)[O-])c1 [Mesotrione, mesotrione] = 14.59

###

Measured Height(cm) After 4 weeks values are reported for all entries that follow.
Test system: transgenic soybean event XP-2
Test: Field herbicide tolerance test, single herbicides (Example 7)
Conditions: XP-2; 4 weeks after spraying at V3; doses as Table 10 c1
Assay Readout: Height(cm) After 4 weeks

• Cc1cc(Cl)ccc1OCC(=O)O [MCPA] = 21.6
• COc1cc(OC)nc(NC(=O)NS(=O)(=O)c2ncccc2C(=O)N(C)C)n1 [Nicosulfuron, nicosulfuron] = 21.66
• O=C(O)CNCP(=O)(O)O [Glyphosate, glyphosate] = 21.6
• CCOC(=O)c1cnn(C)c1S(=O)(=O)NC(=O)Nc1nc(OC)cc(OC)n1 [Pyrazosulfuron-ethyl, pyrazosulfuron-ethyl] = 21.63
• CS(=O)(=O)c1ccc(C(=O)C2C(=O)CCCC2=O)c([N+](=O)[O-])c1 [Mesotrione, mesotrione] = 21.63
